Where do the numbers come from? From patent US20240409645A1.

Molecular target: T1, mouse common cytokine receptor γ-chain (IL-2Rγ) (mouse, UniProt P34902 23-263, limits assumed)
T1 construct: Recombinant mouse IL-2Rγ protein; also called mo IL-2R; mouse IL-2R gamma
T1 sequence (looked up): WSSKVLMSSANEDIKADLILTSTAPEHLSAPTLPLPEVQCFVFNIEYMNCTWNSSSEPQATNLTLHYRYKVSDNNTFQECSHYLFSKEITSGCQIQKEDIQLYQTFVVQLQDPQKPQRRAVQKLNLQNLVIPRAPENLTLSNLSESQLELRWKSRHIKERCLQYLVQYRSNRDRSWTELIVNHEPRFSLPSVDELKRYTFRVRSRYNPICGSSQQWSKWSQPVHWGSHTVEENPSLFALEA
Assay: P.E. off-rate SPR
Form field: koff (one value per entry).
Write the answer as a number in s⁻¹, unit excluded.

Consider the binder FJ1427_P035MP07D09 (VHH, tested as periplasmic extract; also called Clone nr) VHH: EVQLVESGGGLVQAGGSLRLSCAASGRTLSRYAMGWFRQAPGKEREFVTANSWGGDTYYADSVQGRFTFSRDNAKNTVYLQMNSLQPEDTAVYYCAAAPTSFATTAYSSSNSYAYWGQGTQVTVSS and give its measured koff.
0.126

Consider the binder FJ1427_P035MP07C08 (VHH, tested as periplasmic extract; also called Clone nr; 635) VHH: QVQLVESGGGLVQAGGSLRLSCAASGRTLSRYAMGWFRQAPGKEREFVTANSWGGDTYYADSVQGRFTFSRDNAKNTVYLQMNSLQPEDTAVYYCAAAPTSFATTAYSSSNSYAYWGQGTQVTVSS and give its measured koff.
0.108
